target: human CYP11B2 (Homo sapiens, UniProt P19099); experiment: G-402 cellular enzyme assay, human CYP11B2 (aldosterone release, HTRF); details: G-402 cells, 1 μM Deoxycorticosterone
pEC50: −log10 of the molar value.
readout.kind: pEC50

{"columns": ["smiles.record", "numeric.result"],
 "data": [
  ["Cc1cc(C)n(Cc2cncc(N3CCc4cc(Cl)ccc4C3=O)c2)n1", 7.00],
  ["CC1(C)c2cc(Cl)ccc2C(=O)N1c1cncc(CNC(=O)c2ccncc2Cl)c1", 7.11],
  ["O=C1c2ccc(Cl)cc2CN1c1cncc2c1CCC[C@@H]2O", 7.05]
]}

###

molecular target: human CYP11B2 (Homo sapiens, UniProt P19099); assay: G-402 cellular enzyme assay, human CYP11B2 (aldosterone release, HTRF); conditions: G-402 cells, 1 μM Deoxycorticosterone
pEC50: −log10 of the molar value.
readout.kind: pEC50

{"columns": ["compound", "numeric.result"],
 "data": [
  ["CC(=O)N1CCCC(c2cncc(N3C(=O)c4ccc(Cl)cc4C3(C)C)n2)C1 (centres unmarked)", 7.49],
  ["O=C1c2ccc(Cl)cc2CCN1c1cncc(Cl)c1", 7.17],
  ["CC(c1cncc(N2CCc3cc(Cl)ccc3C2=O)c1)n1ccnc1 (centres unmarked)", 8.20],
  ["CCS(=O)(=O)N1CCN(c2cncc(N3C(=O)c4ccc(Cl)cc4C3(C)C)c2)CC1", 8.77],
  ["COC(C)c1c(F)cncc1N1CCc2cc(Cl)ccc2C1=O (centres unmarked)", 6.31],
  ["O=C1c2ccc(Cl)cc2CCN1c1cncc(-c2cccc(Cl)c2)c1", 7.35],
  ["CC1c2ccc(Cl)cc2C(=O)N1c1cccnc1 (centres unmarked)", 6.14],
  ["Cc1ccncc1C(=O)NCc1cncc(N2C(=O)c3ccc(Cl)cc3C2(C)C)c1", 7.75],
  ["CC(=O)NC1CCCc2c1cncc2N1C(=O)c2ccc(Cl)cc2C1(C)C (single isomer, unassigned) [Example 467]", 7.54],
  ["Cc1ccn(Cc2cncc(N3CCc4cc(Cl)ccc4C3=O)c2)n1", 6.48],
  ["O=C(c1cncc(N2CCc3cc(Cl)ccc3C2=O)c1)N1CCC(F)(F)CC1", 5.99],
  ["CCC(=O)N1CCN(c2cncc(N3C(=O)c4ccc(Cl)cc4C3(C)C)c2)CC1", 8.92],
  ["CC1(C)c2cc(Cl)ccc2C(=O)N1c1cncc(OC2CC2)c1", 8.24],
  ["CC[C@H]1c2cc(Cl)ccc2C(=O)N1c1cncc2c1CC[C@H]2NC(C)=O (single isomer, unassigned)", 6.87],
  ["O=C1c2ccc(Cl)cc2CCN1c1cncc(OC2CC2)c1", 8.17],
  ["CC(C)S(=O)(=O)NCc1cncc(N2CCc3cc(Cl)ccc3C2=O)c1", 5.82],
  ["COc1cncc(N2CCc3cc(Cl)c(F)cc3C2=O)c1", 7.76],
  ["O=C1c2ccc(Cl)cc2CCN1c1cncc(Cc2c(F)cccc2Cl)c1", 7.53],
  ["CCC1c2ccc(Cl)cc2C(=O)N1c1cncc(CNS(C)(=O)=O)c1 (single isomer, unassigned) [Example 407]", 6.01],
  ["O=C1c2ccc(Cl)cc2CCN1c1cncc(Cn2nccn2)c1", 7.59]
]}

###

// reported pEC50 per item
molecular target: human CYP11B2 (Homo sapiens); assay: G-402 cellular enzyme assay, human CYP11B2 (aldosterone release, HTRF); settings: G-402 cells, 1 μM Deoxycorticosterone
pEC50: −log10 of the molar value.
readout.kind: pEC50

{"columns": ["smiles.record", "readout.kind", "numeric.result"],
 "data": [
  ["Cc1ccc(Cc2cncc(N3CCc4cc(Cl)ccc4C3=O)c2)cn1", "pEC50", 8.77],
  ["CCS(=O)(=O)NCc1cncc(N2C(=O)c3ccc(C#N)cc3C2(C)C)c1", "pEC50", 6.94],
  ["Cc1n[nH]c(C)c1-c1cncc(N2CCc3cc(Cl)ccc3C2=O)c1", "pEC50", 8.29],
  ["O=C1c2ccc(Cl)cc2CCN1c1cncc(Cn2ccc3c(F)cccc32)c1", "pEC50", 7.63],
  ["O=C1c2ccc(Cl)cc2CCN1c1cccnc1", "pEC50", 7.07]
]}

###

Target: human CYP11B2 (Homo sapiens, UniProt P19099)
Construct: expressed in transfected cells
Sequence (P19099 25-503): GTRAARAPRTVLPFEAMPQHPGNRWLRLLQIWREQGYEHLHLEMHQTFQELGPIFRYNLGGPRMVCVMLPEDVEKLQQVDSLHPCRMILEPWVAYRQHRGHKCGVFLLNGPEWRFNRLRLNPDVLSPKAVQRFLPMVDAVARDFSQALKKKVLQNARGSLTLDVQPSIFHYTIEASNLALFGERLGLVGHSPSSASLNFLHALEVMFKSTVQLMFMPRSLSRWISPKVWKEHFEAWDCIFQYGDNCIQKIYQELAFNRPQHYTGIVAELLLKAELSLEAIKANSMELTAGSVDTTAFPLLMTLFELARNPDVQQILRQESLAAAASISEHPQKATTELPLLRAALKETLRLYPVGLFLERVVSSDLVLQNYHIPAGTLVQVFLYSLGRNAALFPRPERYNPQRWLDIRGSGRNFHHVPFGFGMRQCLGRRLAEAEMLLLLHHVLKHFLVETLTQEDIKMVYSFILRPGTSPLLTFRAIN
Assay: G-402 cellular enzyme assay, human CYP11B2 (aldosterone release, HTRF)
Format: cell-based
Settings: G-402 cells, 1 μM Deoxycorticosterone
// reported EC50 per item

{"columns": ["compound", "tgt", "EC50"],
 "data": [
  ["CC1(C)c2cc(Cl)ccc2C(=O)N1c1cncc(CN2CCCC2=O)c1", "human CYP11B2 (Homo sapiens, UniProt P19099)", "20.7 nM"],
  ["CC(C)N1CCN(Cc2cncc(N3CCc4cc(Cl)ccc4C3=O)c2)CC1", "human CYP11B2 (Homo sapiens, UniProt P19099)", "14.1 nM"],
  ["CC(=O)NC1CCc2c1cncc2N1Cc2cc(Cl)ccc2C1=O (single isomer, unassigned; (-)) [Example 318]", "human CYP11B2 (Homo sapiens, UniProt P19099)", "> 30000 nM"],
  ["CCC1c2cc(Cl)ccc2C(=O)N1c1cccnc1 (stereo not shown)", "human CYP11B2 (Homo sapiens, UniProt P19099)", "121 nM"],
  ["O=C1c2ccc(Cl)cc2CCN1c1cncc(N2CCOCC2)c1", "human CYP11B2 (Homo sapiens, UniProt P19099)", "37.2 nM"],
  ["O=C1c2ccc(Cl)cc2CCN1c1cncc2cc[nH]c12", "human CYP11B2 (Homo sapiens, UniProt P19099)", "588 nM"],
  ["CC[C@@H]1c2cc(Cl)ccc2C(=O)N1c1cncc2c1CCC[C@@H]2NC(C)=O (single isomer, unassigned)", "human CYP11B2 (Homo sapiens, UniProt P19099)", "15.3 nM"],
  ["O=C1c2ccc(Cl)cc2CCN1c1cncc(-c2ccc(F)c(F)c2)c1", "human CYP11B2 (Homo sapiens, UniProt P19099)", "26.6 nM"],
  ["O=C1c2ccc(Cl)cc2CCN1c1cncc(CNc2ccccc2)c1", "human CYP11B2 (Homo sapiens, UniProt P19099)", "11.3 nM"],
  ["COc1cncc(N2CCc3nc(Cl)ccc3C2=O)c1", "human CYP11B2 (Homo sapiens, UniProt P19099)", "45.8 nM"],
  ["CN(Cc1cncc(N2C(=O)c3ccc(Cl)cc3C2(C)C)c1)S(C)(=O)=O", "human CYP11B2 (Homo sapiens, UniProt P19099)", "9.2 nM"],
  ["Cc1c(-c2cncc(N3CCc4cc(Cl)ccc4C3=O)c2)ncn1C", "human CYP11B2 (Homo sapiens, UniProt P19099)", "224 nM"],
  ["O=C1CCCN1c1cncc(N2CCc3cc(Cl)ccc3C2=O)c1", "human CYP11B2 (Homo sapiens, UniProt P19099)", "321 nM"],
  ["O=C1c2ccc(Cl)cc2CCN1c1cncc(CN2CCCC(O)C2)c1 (stereo not shown)", "human CYP11B2 (Homo sapiens, UniProt P19099)", "23.7 nM"],
  ["O=C1c2ccc(Cl)cc2CCN1c1cncc(COC2CCCC2)c1", "human CYP11B2 (Homo sapiens, UniProt P19099)", "46.8 nM"],
  ["O=Cc1cncc(N2CCc3cc(Cl)ccc3C2=O)c1", "human CYP11B2 (Homo sapiens, UniProt P19099)", "117 nM"],
  ["CC1(C)c2cc(Cl)ccc2C(=O)N1c1cncc(CN2CCCCC2=O)c1", "human CYP11B2 (Homo sapiens, UniProt P19099)", "16.5 nM"],
  ["Cn1nccc1-c1cncc(N2C(=O)c3ccc(Cl)nc3C2(C)C)c1", "human CYP11B2 (Homo sapiens, UniProt P19099)", "56.2 nM"],
  ["CC[C@H]1c2cc(Cl)ccc2C(=O)N1c1cncc2c1CC[C@H]2NS(C)(=O)=O (single isomer, unassigned)", "human CYP11B2 (Homo sapiens, UniProt P19099)", "12.1 nM"]
]}
